test.name: Toxicity in ip dosed C57BL/6J mouse assessed as maximum tolerated dose and measured for 14 days
Assay type: organism-based
test.context: in vivo, time 14 day
measure.name: MTD at 336 h (mg/kg)
Number only, in mg/kg; omit the unit.

Enquiry: Endpoint output: MTD at 336 h of "CS(=O)(=O)c1ccc(-c2nc(C(=O)NCc3cn(-c4cc(Br)ccn4)nn3)cs2)cc1" . Value?
Return: 400

----------
Reported AUC(0-t) at 24 h values for a set of compounds
test.name: AUC(0 to t) in BALB/c mouse at 10 mg/kg, po measured for 24 hrs by LC-MS/MS analysis
Type: ADME, organism-based
Design: time 24 hrs, dose 10 mg/kg, route po
test.context: in vivo
// return numeric value only (unit: ng·h/mL, not printed)

Please review the following examples before continuing.
O=C(NCC1(N2CCN(c3ccccc3)CC2)CCOCC1)c1cccnc1Sc1ccccc1 :: 155
CS(=O)(=O)c1ccc(-c2ncc(C(=O)NCc3cn(-c4cc(Br)ccn4)nn3)s2)cc1 :: 7140
CS(=O)(=O)c1ccc(-c2nc(C(=O)NCc3cn(-c4cc(Cl)ccn4)nn3)cs2)cc1 :: 4390
CS(=O)(=O)c1ccc(-c2nc(C(=O)NCc3cn(-c4cc(Br)ccn4)nn3)cs2)cc1 :: 6510

Would you kindly look at the next entry?
Enquiry: May I ask what AUC(0-t) at 24 h has been recorded for "CS(=O)(=O)c1ccc(-c2ncc(C(=O)NCc3cn(-c4cc(Cl)ccn4)nn3)s2)cc1" ?
Return: 29100

----------
Reported IC50 values are given for each entry in this list.
system.name: P2X purinoceptor 7 (Homo sapiens, UniProt Q99572)
Sequence (Q99572 whole entry): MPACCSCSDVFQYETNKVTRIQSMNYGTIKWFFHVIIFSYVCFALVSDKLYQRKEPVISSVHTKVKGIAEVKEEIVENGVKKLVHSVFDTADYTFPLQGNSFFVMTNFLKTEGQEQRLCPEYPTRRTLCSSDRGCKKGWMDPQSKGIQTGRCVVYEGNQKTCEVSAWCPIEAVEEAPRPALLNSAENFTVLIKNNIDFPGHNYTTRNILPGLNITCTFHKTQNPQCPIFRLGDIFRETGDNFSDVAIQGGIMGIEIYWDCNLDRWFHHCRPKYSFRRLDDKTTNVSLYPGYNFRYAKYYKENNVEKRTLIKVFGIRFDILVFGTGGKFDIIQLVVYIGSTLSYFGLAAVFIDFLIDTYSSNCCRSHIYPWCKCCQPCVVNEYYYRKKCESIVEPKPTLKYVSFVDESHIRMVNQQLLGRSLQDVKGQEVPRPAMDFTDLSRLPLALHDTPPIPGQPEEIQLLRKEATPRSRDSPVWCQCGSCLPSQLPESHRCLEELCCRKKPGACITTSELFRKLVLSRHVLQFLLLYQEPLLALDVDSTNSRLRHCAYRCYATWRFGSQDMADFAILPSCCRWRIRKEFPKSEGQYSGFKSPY
test.name: Antagonist activity at P2X7 receptor in human THP-1 cells assessed as inhibition of ATP-induced IL-1beta secretion pretreated with LPS for 3 hrs followed by incubation with compound for 40 mins followed by treatment with ATP for 1 hr by ELISA
Format: cell-based
Kindly answer with a numeric value in nM, unit omitted.

Answered examples (3):
CS(=O)(=O)c1ccc(-c2ncc(C(=O)NCc3cn(-c4cc(Cl)ccn4)nn3)s2)cc1 :: 635
CS(=O)(=O)c1ccc(-c2nc(C(=O)NCc3cn(-c4cc(Cl)ccn4)nn3)cs2)cc1 :: 358
CS(=O)(=O)c1ccc(-c2ncc(C(=O)NCc3cn(-c4cc(Br)ccn4)nn3)s2)cc1 :: 289

Moving on to another molecule below.
Enquiry: Value lookup for IC50; key = "CS(=O)(=O)c1ccc(-c2nc(C(=O)NCc3cn(-c4cc(Br)ccn4)nn3)cs2)cc1"
Return: 327

----------
system.name: P2X purinoceptor 7 (Homo sapiens) (UniProt Q99572)
Sequence (Q99572 whole entry): as above
test.name: Antagonist activity at human P2X7 receptor expressed in HEK293 cells assessed as inhibition of ATP-induced receptor pore formation at 10 uM by propidium iodide dye uptake based fluorescence analysis
Type: cell-based
Activity calls are given as the source filed them. No cut-off for these calls is given here.
measure.name: inhibition

Cc1cccc(Cl)c1C(=O)NCc1cn(-c2cc(Cl)ccn2)nn1 :: inactive
O=C(NCc1cn(-c2cc(Cl)ccn2)nn1)c1ccccc1Cl :: inactive
O=C(NCc1cn(-c2cc(Cl)ccn2)nn1)c1c(Cl)cccc1Br :: 23.1%
O=C(NCc1cn(-c2cc(Cl)ccn2)nn1)c1ccc(Cl)cc1 :: inactive

----------
system.name: P2X purinoceptor 7 (Mus musculus)
Sequence (Q9Z1M0 whole entry): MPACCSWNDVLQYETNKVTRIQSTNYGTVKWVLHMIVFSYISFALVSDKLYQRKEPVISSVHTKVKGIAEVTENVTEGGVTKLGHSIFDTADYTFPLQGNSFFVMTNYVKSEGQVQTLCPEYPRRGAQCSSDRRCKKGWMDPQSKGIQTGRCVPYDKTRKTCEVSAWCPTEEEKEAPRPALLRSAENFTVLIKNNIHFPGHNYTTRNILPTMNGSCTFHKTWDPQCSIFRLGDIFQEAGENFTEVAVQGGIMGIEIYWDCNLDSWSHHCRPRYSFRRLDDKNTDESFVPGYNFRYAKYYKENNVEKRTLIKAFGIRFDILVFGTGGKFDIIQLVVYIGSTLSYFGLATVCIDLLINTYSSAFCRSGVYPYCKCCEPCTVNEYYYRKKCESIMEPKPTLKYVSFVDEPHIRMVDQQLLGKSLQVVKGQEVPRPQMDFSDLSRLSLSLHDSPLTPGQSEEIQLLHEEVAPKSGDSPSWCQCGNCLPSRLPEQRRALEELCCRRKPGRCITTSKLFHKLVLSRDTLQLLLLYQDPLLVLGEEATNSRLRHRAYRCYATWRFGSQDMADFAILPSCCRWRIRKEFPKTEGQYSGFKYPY
test.name: Antagonist activity at mouse P2X7 receptor expressed in HEK293 cells assessed as inhibition of ATP-induced receptor pore formation by propidium iodide dye uptake based fluorescence analysis
Type: cell-based
pIC50: −log10 of the molar value.
pIC50 vs 7: at or above is class 1, below is class 0.

As a guide, the following entries are already answered.
O=C(NCc1cn(-c2cc(Cl)ccn2)nn1)c1cc(-c2cccc3cc[nH]c23)ccc1Cl :: class 0
CS(=O)(=O)c1ccc(-c2nc(C(=O)NCc3cn(-c4cc(Br)ccn4)nn3)cs2)cc1 :: class 1
CC(C)S(=O)(=O)c1ccc(-c2ncc(C(=O)NCc3cn(-c4cc(Cl)ccn4)nn3)s2)cc1 :: class 0
O=C(NCc1cn(-c2cc(Cl)ccn2)nn1)c1cnc(-c2cccc(NS(=O)(=O)N3CCOCC3)c2)s1 :: class 1
CS(=O)(=O)c1ccc(-c2nc(C(=O)NCc3cn(-c4cc(Cl)ccn4)nn3)cs2)cc1 :: class 1

Enquiry: Dear colleague, could you confirm whether "COc1ccc(-c2ccc(Cl)c(C(=O)NCc3cn(-c4cc(Cl)ccn4)nn3)c2)cc1OC" has pIC50 at or above 7?
Return: class 0

Enquiry: Item "Nc1ccc(-c2ncc(C(=O)NCc3cn(-c4cc(Cl)ccn4)nn3)s2)cc1" with pIC50 of 7 or above?
Return: class 0

Enquiry: State whether the measured pIC50 reaches 7, counting equality as reaching it, for "CS(=O)(=O)c1ccc(-c2ncc(C(=O)NCc3cn(-c4cc(F)ccn4)nn3)s2)cc1"
Return: class 0

Enquiry: Please indicate if the recorded pIC50 for "CS(=O)(=O)c1ccc(-c2ncc(C(=O)NCc3cn(-c4cccc(Br)n4)nn3)s2)cc1" meets or exceeds 7.
Return: class 0

Enquiry: Check the entry "CS(=O)(=O)c1ccc(-c2ncc(C(=O)NCc3cn(-c4cc(Br)ccn4)nn3)s2)cc1" : does pIC50 equal or exceed 7?
Return: class 1

Enquiry: Quick check, pIC50 >= 7? "CS(=O)(=O)c1ccc(-c2csc(C(=O)NCc3cn(-c4cc(Cl)ccn4)nn3)n2)cc1"
Return: class 0

Enquiry: Hi, just wondering whether "CS(=O)(=O)c1ccc(-c2ncc(C(=O)NCc3cn(-c4cc(Cl)ccn4)nn3)s2)cc1" shows pIC50 of 7 or higher.
Return: class 1

Enquiry: Is the recorded value of pIC50 equal to or greater than 7 for this compound? "CS(=O)(=O)Nc1cccc(-c2ccc(Cl)c(C(=O)NCc3cn(-c4cc(Cl)ccn4)nn3)c2)c1"
Return: class 0

----------
test.name: Cmax in BALB/c mouse at 10 mg/kg, ip measured for 24 hrs by LC-MS/MS analysis
Assay type: ADME, organism-based
Design: dose 10 mg/kg, time 24 hrs, route ip
test.context: in vivo
measure.name: Cmax (ng/mL)
Expressed in ng/mL, but write only the number.

Past entries and their recorded results:
CS(=O)(=O)c1ccc(-c2nc(C(=O)NCc3cn(-c4cc(Br)ccn4)nn3)cs2)cc1 :: 1070
CS(=O)(=O)c1ccc(-c2ncc(C(=O)NCc3cn(-c4cc(Br)ccn4)nn3)s2)cc1 :: 3660
CS(=O)(=O)c1ccc(-c2nc(C(=O)NCc3cn(-c4cc(Cl)ccn4)nn3)cs2)cc1 :: 3650

In the following, a different compound is considered.
Enquiry: Can you look up the measured Cmax of "CS(=O)(=O)c1ccc(-c2ncc(C(=O)NCc3cn(-c4cc(Cl)ccn4)nn3)s2)cc1" for me?
Return: 1470

----------
test.name: Half life in mouse liver microsomes
Format: ADME, Microsome
Reported half-life values follow for various molecules
Enter your answer as a number in h; do not include the unit.

O=C(NCC1(N2CCN(c3ccccc3)CC2)CCOCC1)c1cccnc1Sc1ccccc1 :: 1.03

Enquiry: What does the record list as half-life for "CC(C)S(=O)(=O)c1ccc(-c2ncc(C(=O)NCc3cn(-c4cc(Cl)ccn4)nn3)s2)cc1" ?
Return: 1.38

----------
system.name: P2X purinoceptor 7 (Mus musculus)
test.name: Antagonist activity at mouse P2X7 receptor expressed in HEK293 cells assessed as inhibition of ATP-induced receptor pore formation at 10 uM by propidium iodide dye uptake based fluorescence analysis
Type: cell-based
test.context: filed as antagonist
Reported inhibition values for the following compounds.
Give a bare numeral; the unit % is implied.

Worked examples follow.
O=C(NCc1cn(-c2cc(Cl)ccn2)nn1)c1ccc(Cl)cc1 :: 62.8
O=C(NCc1cn(-c2cc(Cl)ccn2)nn1)c1c(Cl)cccc1Br :: 62.3

Query compound follows.
Enquiry: Form: Entry = "O=C(NCC1(N2CCN(c3ccccc3)CC2)CCOCC1)c1cccnc1Sc1ccccc1" | System = P2X purinoceptor 7 (Mus musculus) | inhibition = ____
Return: 89

----------
test.name: Toxicity in C57BL/6J mouse assessed as animal's survival rate at 400 mg/kg, ip measured for 14 days
Assay type: organism-based
test.context: in vivo, time 14 day
measure.name: survival at 336 h (%)
Response body: numeric value in %, unit text excluded.

Enquiry: Sample "CS(=O)(=O)c1ccc(-c2nc(C(=O)NCc3cn(-c4cc(Br)ccn4)nn3)cs2)cc1" — what was its survival at 336 h?
Return: 100

----------
system.name: P2X purinoceptor 7 (Homo sapiens) (UniProt Q99572)
test.name: Antagonist activity at human P2X7 receptor expressed in HEK293 cells assessed as inhibition of ATP-induced receptor pore formation at 10 uM by propidium iodide dye uptake based fluorescence analysis
Assay type: cell-based
test.context: filed as antagonist
Parameter: inhibition. Scope: all listed entries.
State just the number; it will be interpreted in %.

Sample answers from the record:
O=C(NCC1(N2CCN(c3ccccc3)CC2)CCOCC1)c1cccnc1Sc1ccccc1 :: 92
O=C(NCc1cn(-c2cc(Cl)ccn2)nn1)c1ccc(C(F)(F)F)cc1Cl :: 45.1
O=C(NCc1cn(-c2cc(Cl)ccn2)nn1)c1cc(Br)ccc1Cl :: 59.3

Enquiry: What inhibition value was documented for this molecule, "O=C(NCc1cn(-c2cc(Cl)ccn2)nn1)c1cccc(C(F)(F)F)c1Cl" ?
Return: 46.5

Enquiry: Entry under review: "O=C(NCc1cn(-c2cc(Cl)ccn2)nn1)c1ccc(C(F)(F)F)c(Br)c1" . Reported inhibition?
Return: 53.5
